Biological target: Platelet-derived growth factor receptor beta (Homo sapiens, UniProt P09619)
Sequence (P09619 whole entry): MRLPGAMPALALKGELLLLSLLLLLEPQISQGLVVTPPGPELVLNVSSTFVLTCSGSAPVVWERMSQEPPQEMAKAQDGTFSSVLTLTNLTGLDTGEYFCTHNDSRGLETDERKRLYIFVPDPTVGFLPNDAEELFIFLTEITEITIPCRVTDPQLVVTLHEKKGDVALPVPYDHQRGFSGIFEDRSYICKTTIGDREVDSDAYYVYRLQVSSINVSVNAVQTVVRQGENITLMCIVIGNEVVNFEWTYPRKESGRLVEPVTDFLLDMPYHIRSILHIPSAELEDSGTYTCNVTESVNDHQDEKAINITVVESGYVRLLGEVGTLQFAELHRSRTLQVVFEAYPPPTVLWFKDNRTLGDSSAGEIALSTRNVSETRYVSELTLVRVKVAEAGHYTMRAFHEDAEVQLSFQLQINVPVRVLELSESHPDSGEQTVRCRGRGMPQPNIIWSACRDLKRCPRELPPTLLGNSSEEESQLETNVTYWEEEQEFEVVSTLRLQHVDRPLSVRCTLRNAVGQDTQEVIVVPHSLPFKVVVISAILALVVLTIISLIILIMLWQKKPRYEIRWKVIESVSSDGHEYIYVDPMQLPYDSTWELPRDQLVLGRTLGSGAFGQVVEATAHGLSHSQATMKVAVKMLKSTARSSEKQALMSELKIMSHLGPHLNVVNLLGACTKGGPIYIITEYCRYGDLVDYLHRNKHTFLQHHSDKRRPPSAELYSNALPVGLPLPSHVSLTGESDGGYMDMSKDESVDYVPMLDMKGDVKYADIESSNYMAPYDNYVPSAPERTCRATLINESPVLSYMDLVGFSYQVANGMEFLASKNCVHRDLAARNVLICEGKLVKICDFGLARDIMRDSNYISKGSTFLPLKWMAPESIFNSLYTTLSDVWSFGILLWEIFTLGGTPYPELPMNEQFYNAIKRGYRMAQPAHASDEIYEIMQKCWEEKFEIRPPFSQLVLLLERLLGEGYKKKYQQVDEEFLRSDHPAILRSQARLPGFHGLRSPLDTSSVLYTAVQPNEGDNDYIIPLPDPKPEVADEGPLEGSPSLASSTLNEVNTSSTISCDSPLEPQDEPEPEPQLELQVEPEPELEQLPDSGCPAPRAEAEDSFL
Assay: The rest of the stock solutions was storaged at ⿿20° C. after subpackage.
Assay Endpoint: pIC50
Lab note: report pIC50 as minus log10 of the concentration in molar units, number only.

Fill in the blank: the reported pIC50 of Cc1ccc(F)c(NC(=O)Nc2ccc(-c3cncc4[nH]nc(N)c34)c3ccccc23)c1 is ____.
7.60

====

We begin with a simple list: items and their reported pIC50.
Target: Platelet-derived growth factor receptor beta (Homo sapiens, UniProt P09619)
Lab note: report pIC50 as minus log10 of the concentration in molar units, number only.

Entry Smiles	Test System	Data Value
Cc1cccc(NC(=O)Nc2ccc(-c3ccc(OCCCN4CCCC4)c4[nH]nc(N)c34)c3ccccc23)c1	Platelet-derived growth factor receptor beta (Homo sapiens, UniProt P09619)	7.34
Cc1ccc(F)c(NC(=O)Nc2ccc(-c3ccc(OCCCN4CCCC4)c4[nH]nc(N)c34)c3ccccc23)c1	Platelet-derived growth factor receptor beta (Homo sapiens, UniProt P09619)	7.79

Okay, now this compound:
Fill in the blank: the reported pIC50 of Cc1cccc(NC(=O)Nc2ccc(-c3ccc(OCCC(C)(C)N)c4[nH]nc(N)c34)c3ccccc23)c1 is ____.
6.81
